Data provenance: patent US6620807B1

biological target: Vasopressin V2 (Rattus norvegicus); construct: Vasopressin V2 Agonist Effects of Test Compounds in Normal Conscious Water-loaded Rats; from tissue; host or cells: whole animal: conscious water-loaded Sprague-Dawley rats (V2 receptors of the kidney collecting ducts); assay: Vasopressin V2 agonist effects of test compounds in normal conscious water-loaded rats; type: in vivo; conditions: percent decrease in urine volume vs. control; oral dose of 10 mg/Kg; water-loaded Sprague-Dawley (CD) rats; urine collected for four hours after dosing
measured-quantity: Urine Volume (% decrease)

a: O=C(c1ccc2c(c1)OCO2)N1Cc2cccnc2Nc2ccccc21 [Example 2]
b: O=C(c1ccc2nonc2c1)N1Cc2cccnc2Nc2ccccc21 [Example 4]
c: O=C(c1ccc2c(c1)CCO2)N1Cc2cccnc2Nc2ccccc21 [Example 3]
Q. Which order do these items take when sorted by rising Urine Volume (% decrease)? List them. Present the labels in the sequence the task asks for.
A. b, c, a

----------
Molecular target: Vasopressin V2 (Rattus norvegicus)
Construct: Vasopressin V2 Agonist Effects of Test Compounds in Normal Conscious Water-loaded Rats; from tissue; host or cells: whole animal: conscious water-loaded Sprague-Dawley rats (V2 receptors of the kidney collecting ducts)
Assay: Vasopressin V2 agonist effects of test compounds in normal conscious water-loaded rats
Assay type: in vivo
Conditions: osmolality changes expressed as percent of control; oral dose of 10 mg/Kg; water-loaded Sprague-Dawley (CD) rats; urine collected for four hours
Experimental: Vasopressin V2 Agonist Effects of Test Compounds in Normal Conscious Water-loaded Rats: Male or female normotensive Sprague-Dawley rats (Charles River Laboratories, Inc., Kingston, N.Y.) of 350-500 g body weight were supplied with standard rodent diet (Purina Rodent Lab. Chow 5001) and water ad libitum. […] At the end of four hours, urine volume was measured. […]
Parameter Changes in Urinary Osmolality: see the listing below.

Here are 4 compounds together with their reported answers.
- smiles-repr: "O=C(c1ccc2c(c1)CCO2)N1Cc2cccnc2Nc2ccccc21"
  Changes in Urinary Osmolality: "54% of control"
- smiles-repr: "O=C(c1ccc2ncsc2c1)N1Cc2cccnc2Nc2ccccc21"
  Changes in Urinary Osmolality: "78% of control"
- smiles-repr: "Cn1ccc2cc(C(=O)N3Cc4cccnc4Oc4ccccc43)ccc21"
  Changes in Urinary Osmolality: "35% of control"
- smiles-repr: "O=C(c1ccc2c(c1)OCO2)N1Cc2cccnc2Nc2ccccc21"
  Changes in Urinary Osmolality: "247% of control"

Field: next compound
Q. Need Changes in Urinary Osmolality, item Cn1ccc2cc(C(=O)N3Cc4cccnc4Nc4ccccc43)ccc21
A. 159% of control

----------
target: Vasopressin V2 (Rattus norvegicus, UniProt Q00788); construct: Vasopressin V2 Agonist Effects of Test Compounds in Normal Conscious Water-loaded Rats; from tissue; host or cells: whole animal: conscious water-loaded Sprague-Dawley rats (V2 receptors of the kidney collecting ducts); experiment: Vasopressin V2 agonist effects of test compounds in normal conscious water-loaded rats; format: in vivo; details: percent decrease in urine volume vs. control; oral dose of 10 mg/Kg; water-loaded Sprague-Dawley (CD) rats; urine collected for four hours after dosing
Sequence (Q00788 whole entry): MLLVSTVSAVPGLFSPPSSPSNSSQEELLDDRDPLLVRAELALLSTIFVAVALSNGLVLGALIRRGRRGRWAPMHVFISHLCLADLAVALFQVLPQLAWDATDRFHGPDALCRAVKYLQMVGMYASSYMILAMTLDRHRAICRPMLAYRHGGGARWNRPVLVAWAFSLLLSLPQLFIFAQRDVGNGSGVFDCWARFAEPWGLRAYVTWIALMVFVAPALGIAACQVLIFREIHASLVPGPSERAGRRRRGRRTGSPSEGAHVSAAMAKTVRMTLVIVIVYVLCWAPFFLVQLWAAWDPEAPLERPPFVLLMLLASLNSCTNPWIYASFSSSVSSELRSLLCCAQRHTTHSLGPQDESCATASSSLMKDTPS
measured-quantity: Urine Volume (% decrease)

- smiles-repr: "Cn1ccc2cc(C(=O)N3Cc4cccnc4Nc4ccccc43)ccc21"
  quantitative-readout: 74

1: O=C(c1ccc2ncsc2c1)N1Cc2cccnc2Nc2ccccc21
2: Cn1ccc2cc(C(=O)N3Cc4cccnc4Oc4ccccc43)ccc21
Q. Lab note: check whether 1 or 2 shows the higher recorded Urine Volume (% decrease). Your answer should be the label attached to the chosen record.
A. 1
(1: 31 % decrease, 2: 21 % decrease)
